Where these numbers come from: paper PMC10757926

target: T1, hSIRPα domain 3 displayed on U2OS cells (Homo sapiens, UniProt P78324); experiment: immunostaining of cells or tissue; live-cell immunofluorescence on U2OS cells expressing the target; unlabeled Nbs (1 nM to 100 nM) with Cy5-labeled anti-VHH, 1 h at 37°C; conditions: one partner purified
T1 construct: signal-regulatory protein α (SIRPα), human, domain 3; also called hSIRPαD3; D3; source: U2OS, transiently expressing, on live cells
T1 sequence (P78324 whole entry, looked up, tested part not stated): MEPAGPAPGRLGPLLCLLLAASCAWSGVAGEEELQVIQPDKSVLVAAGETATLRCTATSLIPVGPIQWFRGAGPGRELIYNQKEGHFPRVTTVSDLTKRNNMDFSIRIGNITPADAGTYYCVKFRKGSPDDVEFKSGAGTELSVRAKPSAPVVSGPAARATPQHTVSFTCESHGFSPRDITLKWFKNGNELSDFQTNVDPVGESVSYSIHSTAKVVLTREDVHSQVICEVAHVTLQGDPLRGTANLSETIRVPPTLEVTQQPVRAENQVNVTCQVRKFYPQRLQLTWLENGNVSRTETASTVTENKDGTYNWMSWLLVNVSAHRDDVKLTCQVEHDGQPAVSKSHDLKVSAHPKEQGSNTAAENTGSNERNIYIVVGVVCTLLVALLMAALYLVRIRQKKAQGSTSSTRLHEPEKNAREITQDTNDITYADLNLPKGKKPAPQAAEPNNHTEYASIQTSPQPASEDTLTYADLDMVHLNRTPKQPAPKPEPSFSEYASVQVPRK
MEASURED METRIC: binding result

>  <BINDER>
hSIRPα Nb S7 (VHH, selected against the entire extracellular portion of hSIRPα; source: E. coli XL-1, purified (IMAC, SEC); not shown: His tag (from the IMAC purification)) VHH: HVQLVESGGGLVQVGDSLRLSCAPSGRTFRAYAMAWFRQAPGKEREFVAAIRWIGGTPSYKDSVKGRFTISRDNARNTFYLQMNSLEPQDTGVYYCAAEETQKGSGLGHDGRHYDYWGQGTPVTVSS

>  <MEASURED METRIC>
binding result

>  <ASSAY RESULT>
binds

$$$$
